- subject-of-test: SCRIB_1, Q14160
- Sequence (Q14160 718-814): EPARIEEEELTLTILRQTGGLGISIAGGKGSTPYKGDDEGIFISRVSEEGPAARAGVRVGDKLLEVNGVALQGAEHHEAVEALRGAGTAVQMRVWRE
- assay-overview: holdup assay
- Set-up: key: below the threshold = too weak to quantify, mostly under pKd 3.1 to 4
- condition-set: plain residues with an end cap or a label only (N-terminal biotin on a linker: ahx)

# binder, pKd
records = [
    ("ESLLLGPSNF [SHROOM4, Q9ULL8]", "below the threshold"),
    ("GYDWGPATDL [TJP3, O95049]", 3.76),
    ("RRRKRKRTYL [HPV49-L2, P36762]", 3.67),
    ("HNAFLSVTTV [PDZRN4, Q6ZMN7]", "below the threshold"),
    ("TVICWPGSLV [LNX2, Q8N448]", "below the threshold"),
    ("RAVEEEESRF [PSCDBP, O60759]", "below the threshold"),
    ("NRKREIFSNF [NHERF2, Q15599]", "below the threshold"),
    ("PSASCAVTAA [PDLIM4, P50479;P50479-2]", "below the threshold"),
    ("SDSSGQEYSL [KCTD3, Q9Y597]", "below the threshold"),
    ("LSDPSVSTVV [GRIN1, Q05586;Q05586-2]", "below the threshold"),
]

Every entry's value here was drawn from paper PMC9482650.
